# procedure_summary: Single oral dose human plasma pharmacokinetics of D, DA and DOH after Cogni.Q
# Assay type: in vivo
# condition_description: human, plasma, oral, 4 Cogni.Q vegicaps, subject S2 (194 lb); read-out: Tmax
quantity_measured: Tmax
Quick note: number first, unit second.

These recorded examples may help you get a feel for the data.
In [3]: df
Out[3]:
                                   molecule  quantity_measured  observed
0  C/C=C(/C)C(=O)O[C@H]1Cc2cc3ccc(=O)oc3cc2OC1(C)C [DA, decursinol angelate]               Tmax       3 h
1  CC(C)=CC(=O)O[C@H]1Cc2cc3ccc(=O)oc3cc2OC1(C)C               Tmax       2 h

The record that follows has no Tmax shown yet.
Input CC1(C)Oc2cc3oc(=O)ccc3cc2C[C@@H]1O . Output Tmax: 4 h

====

# procedure_summary: Single oral dose human plasma pharmacokinetics of D, DA and DOH after Cogni.Q
# Format: in vivo
# condition_description: all human subjects n = 20; single oral dose 4 Cogni.Q vegicaps (119 mg D, 77 mg DA); plasma; read-out: Cmax, nmol/L Mean (SD)
# Protocol: Ten healthy male and 10 female subjects were recruited by public announcement in Amarillo, TX, from January 2013 to April 2013 (see Fig. 1 CONSORT diagram). […] Plasma was prepared by centrifuging the heparinized blood at 1000 g for 15 minutes at room temperature. Urine samples (40mL) were collected within time spans of 0–4, 4–8, 8–12 and 12–24 hours (total volume of urine was recorded). […]
quantity_measured: Cmax
Quick note: number first, unit second.

Input C/C=C(/C)C(=O)O[C@H]1Cc2cc3ccc(=O)oc3cc2OC1(C)C [DA, decursinol angelate] . Output Cmax: 48.1 nmol/L

====

# procedure_summary: Single oral dose human plasma pharmacokinetics of D, DA and DOH after Cogni.Q
# Type: in vivo
# condition_description: human, plasma, oral, 4 Cogni.Q vegicaps, subject S10 (185 lb); read-out: Tmax
Provide the reported Tmax of each item.
Answers are plain numbers, in h.

>>> df
                                   compound  observed
0        CC1(C)Oc2cc3oc(=O)ccc3cc2C[C@@H]1O         2
1  C/C=C(/C)C(=O)O[C@H]1Cc2cc3ccc(=O)oc3cc2OC1(C)C [DA, decursinol angelate]         2

The record that follows has no Tmax shown yet.
Input CC(C)=CC(=O)O[C@H]1Cc2cc3ccc(=O)oc3cc2OC1(C)C . Output Tmax: 0.5

====

Provide the reported Tmax of each item.
# procedure_summary: Single oral dose human plasma pharmacokinetics of D, DA and DOH after Cogni.Q
# Format: in vivo
# condition_description: human, plasma, oral, 4 Cogni.Q vegicaps, subject S5 (161 lb); read-out: Tmax
Give bare numbers, in h.

These recorded examples may help you get a feel for the data.
In [3]: df
Out[3]:
                                   molecule  quantity_measured  units_of_measure  observed
0  C/C=C(/C)C(=O)O[C@H]1Cc2cc3ccc(=O)oc3cc2OC1(C)C [DA, decursinol angelate]               Tmax                 h         1
1        CC1(C)Oc2cc3oc(=O)ccc3cc2C[C@@H]1O               Tmax                 h         2

Input CC(C)=CC(=O)O[C@H]1Cc2cc3ccc(=O)oc3cc2OC1(C)C . Output Tmax: 1
